Assayed Target: GABAA2 receptors (α2, β3, γ2 receptor subunits transfected into Sf9 cells) (Homo sapiens, UniProt P18507+P47869)
Sequence (P47869 29-451): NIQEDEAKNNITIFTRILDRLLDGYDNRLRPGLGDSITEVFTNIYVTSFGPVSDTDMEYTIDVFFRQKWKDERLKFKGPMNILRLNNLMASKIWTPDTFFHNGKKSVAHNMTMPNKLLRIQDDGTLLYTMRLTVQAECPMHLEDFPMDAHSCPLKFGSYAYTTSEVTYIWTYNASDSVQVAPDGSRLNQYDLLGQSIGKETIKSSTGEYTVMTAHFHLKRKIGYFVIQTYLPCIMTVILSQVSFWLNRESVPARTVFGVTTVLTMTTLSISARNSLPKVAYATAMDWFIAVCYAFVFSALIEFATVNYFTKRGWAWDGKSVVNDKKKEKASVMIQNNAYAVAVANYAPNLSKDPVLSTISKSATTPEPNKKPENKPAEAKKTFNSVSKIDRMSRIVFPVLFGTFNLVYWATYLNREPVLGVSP
Sequence (P28472 26-473 partner): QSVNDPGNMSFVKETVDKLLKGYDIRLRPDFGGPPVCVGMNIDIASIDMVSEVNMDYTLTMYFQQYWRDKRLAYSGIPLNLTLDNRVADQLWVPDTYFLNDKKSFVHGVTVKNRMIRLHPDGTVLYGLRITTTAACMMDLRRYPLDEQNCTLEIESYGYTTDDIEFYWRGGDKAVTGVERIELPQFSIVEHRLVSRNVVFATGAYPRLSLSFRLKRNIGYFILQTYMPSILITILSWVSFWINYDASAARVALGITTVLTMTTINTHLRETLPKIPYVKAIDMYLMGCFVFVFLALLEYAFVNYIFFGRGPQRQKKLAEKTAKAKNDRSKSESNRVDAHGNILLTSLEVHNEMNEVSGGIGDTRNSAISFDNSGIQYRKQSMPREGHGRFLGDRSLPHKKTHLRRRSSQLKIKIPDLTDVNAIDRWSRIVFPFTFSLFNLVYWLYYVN
Sequence (P18507 40-475): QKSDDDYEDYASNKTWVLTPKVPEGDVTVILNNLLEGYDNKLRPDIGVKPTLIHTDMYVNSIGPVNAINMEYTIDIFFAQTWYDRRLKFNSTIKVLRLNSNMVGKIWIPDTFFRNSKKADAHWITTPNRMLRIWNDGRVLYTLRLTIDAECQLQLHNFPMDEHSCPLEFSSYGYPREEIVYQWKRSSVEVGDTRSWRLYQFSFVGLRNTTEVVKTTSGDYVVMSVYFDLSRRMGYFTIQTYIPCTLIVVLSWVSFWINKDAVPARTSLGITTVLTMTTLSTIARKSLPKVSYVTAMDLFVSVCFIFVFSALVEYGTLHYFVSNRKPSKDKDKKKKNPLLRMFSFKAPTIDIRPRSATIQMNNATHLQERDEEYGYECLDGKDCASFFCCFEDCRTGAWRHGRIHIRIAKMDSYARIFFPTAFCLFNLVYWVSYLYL
Assay Comment: GABAA2 Binding Method ([3H]-Flunitrazepam displacement)
Conditions: [3H]-Flunitrazepam ~2 nM, α2β3γ2 Sf9 membranes, 1 hr at 4° C.
Method: In some embodiments, the binding test is directed to a subtype of GABAA receptors, such as GABAA1 receptors (i.e., those containing the α1 subunit), GABAA2 receptors (i.e., those containing the α2 subunit), GABAA3 receptors (i.e., those containing the α3 subunit) and GABAA5 receptors (i.e., those containing the α5 subunit). [^3H]-Flunitrazepam (Cat #NET567): Prepare 10× stock=20 nM, [F} in assay=˜2 nM 1. […] Data is analyzed by calculating percent of control, IC50, and Ki in an XLfit template. […]
Property: Ki (nM)
Answers are plain numbers, in nM.

Please review the entries below; each comes with its answer.
COc1cccc(-c2cccc3c(N)c4c(nc23)CN(C2CCC2)C4=O)c1F; 4.19
CCCN1Cc2nc3c(-c4ccc(OC)nc4OC)cccc3c(N)c2C1=O [Example 9]; 28.1
COc1cccc(F)c1-c1cccc2c(N)c3c(nc12)CN(C1CCCC1)C3=O; 3.01
CCC(C)N1Cc2nc3c(-c4c(F)cccc4OC)cccc3c(N)c2C1=O (centres unmarked); 46.2
CCCN1Cc2nc3c(-c4ccc(C#N)cc4)cccc3c(N)c2C1=O; 52.1

Give Ki for each of the items listed below.
1. N#Cc1ccccc1-c1cccc2c(N)c3c(nc12)CN(C1CCC1)C3=O [Example 76]
2. Cc1ccncc1-c1cccc2c(N)c3c(nc12)CN(C1CCC1)C3=O
3. CCCN1Cc2nc3c(-c4ccoc4)cccc3c(N)c2C1=O
4. COc1cc(C)c(-c2c(F)ccc3c(N)c4c(nc23)CN(C2CCC2)C4=O)cn1
5. COc1ccc(Cl)cc1-c1cccc2c(N)c3c(nc12)CN(C1CCC1)C3=O [Example 49]
6. COc1cccc(F)c1-c1cccc2c(N)c3c(nc12)CN(C(C)C)C3=O
7. COc1cnccc1-c1cccc2c(N)c3c(nc12)CN(C1CCC1)C3=O
8. CCN1Cc2nc3c(-c4cnccc4OC)cccc3c(N)c2C1=O [Example 57]

Output line:
0.973
1.1
38.2
3.04
2.53
26.8
0.64
21.4

Give Ki for each of the items listed below.
1. COc1ccc(-c2c(F)ccc3c(N)c4c(nc23)CN(C2CCC2)C4=O)c(OC)c1 [Example 100]
2. COc1ccncc1-c1cccc2c(N)c3c(nc12)CN(Cc1ccc2c(c1)OCO2)C3=O
3. COc1ccc(OC)c(CN2Cc3nc4c(-c5cnccc5OC)cccc4c(N)c3C2=O)c1 [Example 39]
4. Nc1c2c(nc3c(-c4ccc(N5CCOCC5)nc4)cccc13)CN(C1CCC1)C2=O
5. CCCN1Cc2nc3c(-c4cnc(OC)nc4OC)c(F)ccc3c(N)c2C1=O

Output line:
1: 0.249; 2: 2.19; 3: 5.11; 4: 8.81; 5: 8.89

Give Ki for each of the items listed below.
1. CCCN1Cc2nc3c(-c4cnc(OC)c(F)c4)cccc3c(N)c2C1=O
2. CCN1Cc2nc3c(-c4cnccc4OC)c(F)ccc3c(N)c2C1=O [Example 36]

Output line:
1. 81.1
2. 2.43
